Target: firefly luciferase (denatured) (firefly, UniProt P08659 1-550 = luciferase)
Sequence (P08659 whole entry): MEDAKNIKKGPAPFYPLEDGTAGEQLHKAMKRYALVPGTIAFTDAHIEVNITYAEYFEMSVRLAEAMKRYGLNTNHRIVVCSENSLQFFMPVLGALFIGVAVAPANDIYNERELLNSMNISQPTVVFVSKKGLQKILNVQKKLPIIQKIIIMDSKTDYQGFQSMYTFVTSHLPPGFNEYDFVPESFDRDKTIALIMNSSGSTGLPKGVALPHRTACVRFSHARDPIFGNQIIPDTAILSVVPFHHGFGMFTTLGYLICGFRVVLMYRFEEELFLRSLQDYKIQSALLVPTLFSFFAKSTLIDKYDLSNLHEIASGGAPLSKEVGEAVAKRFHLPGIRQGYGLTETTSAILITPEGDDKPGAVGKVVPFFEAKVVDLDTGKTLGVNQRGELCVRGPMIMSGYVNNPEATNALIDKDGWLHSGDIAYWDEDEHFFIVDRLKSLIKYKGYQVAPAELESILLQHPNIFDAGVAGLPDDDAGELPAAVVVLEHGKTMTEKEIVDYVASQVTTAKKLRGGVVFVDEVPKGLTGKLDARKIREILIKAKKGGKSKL
Assay: ELISA
property_label: binding result

binder="Sis1-WT (natural protein) MVKETKLYDLLGVSPSANEQELKKGYRKAALKYHPDKPTGDTEKFKEISEAFEILNDPQKREIYDQYGLEAARSGGPSFGPGGPGGAGGAGGFPGGAGGFSGGHAFSNEDAFNIFSQFFGGSSPFGGADDSGFSFSSYPSGGGAGMGGMPGGMGGMHGGMGGMPGGFRSASSSPTYPEEETVQVNLPVSLEDLFVGKKKSFKIGRKGPHGASEKTQIDIQLKPGWKAGTKITYKNQGDYNPQTGRRKTLQFVIQEKSHPNFKRDGDDLIYTLPLSFKESLLGFSKTIQTIDGRTLPLSRVQPVQPSQTSTYPGQGMPTPKNPSQRGNLIVKYKVDYPISLNDAQKRAIDENF" result=binds

Reference source: paper doi:10.1101/2025.05.02.651952
